Assay: NCI Yeast Anticancer Drug Screen. Data for the mlh1 strain (AID 171);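 note: 0% = growth of vehicle-treated control cultures of the same strain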
Conditions: S. cerevisiae mlh1 strain growth inhibition; at 1.2 µM; active compounds read high
The panel holds about 79,000 compounds, 15% with a hit somewhere; the sample as a whole holds those more often.
measured_attribute: growth inhibition (%)
// units = %; emit number, no label

Sample answers from the record:
>>> readout_value("CN(CCOc1ccc(Cl)cc1)CCOc1ccc(Cl)cc1")
13
>>> readout_value("CC(C)NCCCNc1c2ccccc2nc2cccc([N+](=O)[O-])c12")
28
>>> readout_value("Cc1cccc(/C=N/NC(=S)NC2CCCCC2)n1")
-6

Value of measured growth inhibition for the entry `CC1(C)CC(=O)C(C(=O)Nc2cccs2)=C(O)C1` : 1

Value of measured growth inhibition for the entry `CCS(=O)(=O)Nc1ccc(Nc2c3ccccc3nc3ccccc23)c(OC)c1` : -57

Value of measured growth inhibition for the entry O=NC1c2cccc3cccc(c23)C1N=O (stereo unspecified) : 2

Value of measured growth inhibition for the entry `O=C(NCCNCCNC(=O)c1cc(-c2ccccc2)nc2ccccc12)c1cc(-c2ccccc2)nc2ccccc12` : -2

Value of measured growth inhibition for the entry `O=C1c2cccc3cccc(c23)C(=O)N1CCNCCN1C(=O)c2cccc3cccc(c23)C1=O` : 0

Value of measured growth inhibition for the entry `NCCCSc1ccccc1` : -2

Value of measured growth inhibition for the entry `CC1(C)OC(=O)C(=Cc2ccc([N+](=O)[O-])s2)C(=O)O1` : -28

Value of measured growth inhibition for the entry `Cc1ccc(S(=O)(=O)NC(=O)C2C(=O)CC3(CCCCC3)CC2=O)cc1` : -2
